# Tgt: UniProt O15264
# Sequence (O15264 whole entry): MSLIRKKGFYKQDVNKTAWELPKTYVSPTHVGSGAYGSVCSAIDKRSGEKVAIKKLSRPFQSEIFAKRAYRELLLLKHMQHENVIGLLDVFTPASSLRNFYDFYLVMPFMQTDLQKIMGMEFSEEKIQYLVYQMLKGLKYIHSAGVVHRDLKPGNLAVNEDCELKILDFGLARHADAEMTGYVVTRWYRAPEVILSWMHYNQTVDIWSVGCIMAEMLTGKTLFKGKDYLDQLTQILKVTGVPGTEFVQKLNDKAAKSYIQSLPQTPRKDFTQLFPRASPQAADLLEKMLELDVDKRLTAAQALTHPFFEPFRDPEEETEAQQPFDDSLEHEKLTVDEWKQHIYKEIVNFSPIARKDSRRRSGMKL
# Measurement Setup: read-out: MAPK13 inhibition
Recorded IC50 for the following molecules

COCC(=O)Nc1cc(CCc2cnc(NC(=O)Nc3cc(C(C)(C)C)nn3C)s2)ccn1 [Compound 350]	< 250 nM
CC(C)(C)c1cc(NC(=O)Nc2ccc(CCc3ccnc(NC(=O)C4CC4)c3)cc2F)no1 [Compound 378]	> 1000 nM
Cc1ccc(-n2nc(C3(C)CSC3)cc2NC(=O)Nc2ncc(CCc3ccncc3)s2)cc1 [Compound 273]	< 250 nM

We next turn to a different molecule, shown below.
Exercise: Query: IC50; subject: CC(C)(C)c1cc(NC(=O)Nc2ncc(CCc3ccnc(NC(=O)C4CC4)c3)s2)n(CC2CC2)n1 [Compound 334]
Solution: < 250 nM
